tested target: Serine/threonine-protein kinase Nek3 (Homo sapiens)
Sequence (P51956 whole entry): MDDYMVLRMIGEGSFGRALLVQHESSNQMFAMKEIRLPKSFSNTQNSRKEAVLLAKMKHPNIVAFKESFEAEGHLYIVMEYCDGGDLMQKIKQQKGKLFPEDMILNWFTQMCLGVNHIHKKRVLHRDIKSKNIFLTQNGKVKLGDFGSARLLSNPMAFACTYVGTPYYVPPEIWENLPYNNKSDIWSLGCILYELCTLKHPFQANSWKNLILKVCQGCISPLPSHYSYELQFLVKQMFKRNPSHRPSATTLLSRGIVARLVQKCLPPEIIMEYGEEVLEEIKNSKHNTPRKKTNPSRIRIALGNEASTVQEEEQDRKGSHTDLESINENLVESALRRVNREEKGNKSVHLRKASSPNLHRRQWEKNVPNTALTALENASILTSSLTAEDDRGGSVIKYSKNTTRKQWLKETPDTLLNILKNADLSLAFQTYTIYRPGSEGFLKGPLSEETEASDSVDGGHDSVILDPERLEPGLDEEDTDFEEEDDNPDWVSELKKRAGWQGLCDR
readout: pIC50
Scale: pIC50 equals -log10([C]), with [C] in mol/L.

Qu. May I ask what pIC50 has been recorded for "CC(C)NC(=O)c1ccc(Nc2nccc(-c3ccc4nc(N5CCCC5)ncc4c3)n2)cc1" ?
Ans. 6.61

Reference source for all entries: ChEMBL document CHEMBL5532747
